This collection of values is drawn from patent US20210061908A1.

Some binders, each annotated with its measured relative fluorescent units (RFU), ELISA.
- target_or_system: T1, extracellular domain (ECD) of murine IGSF11, biotinylated (mouse, UniProt P0C673 23-240, biotinylated (site not stated))
- T1 construct: also called Mouse IGSF11; murine IGSF11 protein
- T1 sequence: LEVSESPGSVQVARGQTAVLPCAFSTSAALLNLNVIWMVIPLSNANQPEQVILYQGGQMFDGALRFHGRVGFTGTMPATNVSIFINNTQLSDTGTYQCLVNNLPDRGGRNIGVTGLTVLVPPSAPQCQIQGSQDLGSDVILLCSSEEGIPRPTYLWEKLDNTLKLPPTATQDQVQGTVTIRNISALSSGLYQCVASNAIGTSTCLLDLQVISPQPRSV
- method: ELISA, scFv; RFU grade (*** >1.0, ** 0.5-1.0, * 0.1-0.5)

# binder, relative fluorescent units (RFU), ELISA
measured = [
    ("A-021 (scFv format) (scFv, V domains shown, scFv) VH: QVQLVQSGAEVKKPGASVKVSCKASGYTFTSYGISWVRQAPGQGLEWMGWISAYNGNTNYAQKLQGRVTMTTDTSTSTAYMELRSLRSDDTAVYYCARVPAWSGQFDYWGQGTLVTVSS VL: QSALTQPASVSGSPGQSITISCTGTSSDVGGYNYVSWYQQHPGKAPKLMIYEVTNRPSGVSDRFSGSKSANTASLTISELQAEDEAVYYCNSYTSGPTYVLFGGGTQLTVL", "0.1 to 0.5 rfu"),
]

I would be grateful if you could share the reported relative fluorescent units (RFU), ELISA for A-024 (scFv format) (scFv, V domains shown) VH: QMQLVQSGAEVKKPGSSVKVSCKASGGTFSSYAISWVRQAPGQGLEWMGWISAYNGNTNYAQKLQGRVTMTTDTSTSTAYMELRSLRSDDTAVYYCASLGSYGYTGAFDIWGQGTMATVSS VL: QSALTQPASVSGSPGQSITISCTGTSSDVGGYNYVSWYQQHPGKAPKLMIYEVSNRPSGVSNRFSGSKSGNTASLTISGLQAEDEADYYCSSYTSSSTLVVFGGGTKLTVL .
0.1 to 0.5 rfu
